test system: MARIMO; assay: cell viability relative to vehicle control; higher = less cytotoxic; conditions: 10 µM; SRSF2 genotype: SRSF2 P95H/wt;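 further: after 48 h exposure read by CellTiter-Glo luminescence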
Counter-ions that a name gives are not always drawn.
In this section, each of the compounds is paired with its reported cell viability.
Give the quantity in %, number only.

Past entries and their recorded results:
Given CC1(C)[C@@H](O[C@H]2O[C@H](C(=O)O)[C@@H](O)[C@H](O)[C@H]2O[C@@H]2O[C@H](C(=O)O)[C@@H](O)[C@H](O)[C@H]2O)CC[C@]2(C)[C@H]3C(=O)C=C4[C@@H]5C[C@@](C)(C(=O)O)CC[C@]5(C)CC[C@@]4(C)[C@]3(C)CC[C@@H]12 [Dipotassium glycyrrhizinate] , state its recorded cell viability. 103

Entry O=C(O)Cc1ccccc1Nc1c(Cl)cccc1Cl [Diclofenac Sodium] please 103

Entry COc1ccc([C@@H]2CC(=O)c3c(O)cc(O[C@@H]4O[C@H](CO[C@@H]5O[C@@H](C)[C@H](O)[C@@H](O)[C@H]5O)[C@@H](O)[C@H](O)[C@H]4O)cc3O2)cc1O please 107

Entry O=C(Nc1ccc(OC(F)(F)Cl)cc1)c1cnc(N2CC[C@@H](O)C2)c(-c2cc[nH]n2)c1 please 68.4

Entry Cc1ccc(NC(=O)c2ccc(CN3CCN(C)CC3)cc2)cc1Nc1nccc(-c2cccnc2)n1 [Imatinib Mesylate (STI571)] please 103

Others:
Given Nc1nc(=S)c2ncn([C@H]3C[C@H](O)[C@@H](CO)O3)c2[nH]1 , state its recorded cell viability. 56.1

Entry Cc1cc(Nc2nc(N[C@@H](C)c3ccc(F)cc3)c(C#N)cc2F)n[nH]1 please 30.6

Entry Cc1cc(-c2ncc(CC(=O)Nc3ccc(-c4cnccn4)cn3)cc2C)ccn1 please 81.6
